Data origin: ChEMBL document CHEMBL1141458

- TEST_TARGET: Metabotropic glutamate receptor 2 (Homo sapiens, UniProt Q14416)
- Sequence (Q14416 whole entry): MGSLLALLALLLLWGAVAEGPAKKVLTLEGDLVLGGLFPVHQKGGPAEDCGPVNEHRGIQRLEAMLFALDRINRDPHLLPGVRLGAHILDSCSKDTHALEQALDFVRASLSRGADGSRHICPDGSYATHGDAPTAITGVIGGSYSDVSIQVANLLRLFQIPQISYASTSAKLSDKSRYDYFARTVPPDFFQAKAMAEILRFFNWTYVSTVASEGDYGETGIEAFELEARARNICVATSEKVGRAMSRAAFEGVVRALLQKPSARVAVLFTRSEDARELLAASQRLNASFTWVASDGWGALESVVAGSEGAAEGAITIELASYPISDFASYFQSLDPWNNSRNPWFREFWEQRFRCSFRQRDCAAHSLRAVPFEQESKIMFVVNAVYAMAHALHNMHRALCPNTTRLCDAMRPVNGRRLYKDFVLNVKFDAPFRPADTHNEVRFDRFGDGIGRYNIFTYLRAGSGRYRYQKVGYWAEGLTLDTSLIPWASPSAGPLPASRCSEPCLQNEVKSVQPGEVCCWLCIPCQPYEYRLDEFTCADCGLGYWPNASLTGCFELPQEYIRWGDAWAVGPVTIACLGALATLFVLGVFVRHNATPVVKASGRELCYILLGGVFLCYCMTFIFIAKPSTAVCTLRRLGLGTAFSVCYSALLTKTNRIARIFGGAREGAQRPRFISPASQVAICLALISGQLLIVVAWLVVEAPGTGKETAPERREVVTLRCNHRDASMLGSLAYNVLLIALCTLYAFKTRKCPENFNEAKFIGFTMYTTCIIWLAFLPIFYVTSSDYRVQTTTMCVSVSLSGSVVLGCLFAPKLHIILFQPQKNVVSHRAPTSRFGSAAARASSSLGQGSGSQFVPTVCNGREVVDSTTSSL
- PROTOCOL_DESCRIPTION: Antagonist activity at mGlu2 receptor
pIC50: −log10 of the molar value.

{"STRUCTURE_SMILES_STRING": "C[C@@](N)(C(=O)O)c1ccc(C(=O)O)cc1", "pIC50": 5.37}

====

- TEST_TARGET: Metabotropic glutamate receptor 1 (Homo sapiens)
- Sequence (Q13255 whole entry): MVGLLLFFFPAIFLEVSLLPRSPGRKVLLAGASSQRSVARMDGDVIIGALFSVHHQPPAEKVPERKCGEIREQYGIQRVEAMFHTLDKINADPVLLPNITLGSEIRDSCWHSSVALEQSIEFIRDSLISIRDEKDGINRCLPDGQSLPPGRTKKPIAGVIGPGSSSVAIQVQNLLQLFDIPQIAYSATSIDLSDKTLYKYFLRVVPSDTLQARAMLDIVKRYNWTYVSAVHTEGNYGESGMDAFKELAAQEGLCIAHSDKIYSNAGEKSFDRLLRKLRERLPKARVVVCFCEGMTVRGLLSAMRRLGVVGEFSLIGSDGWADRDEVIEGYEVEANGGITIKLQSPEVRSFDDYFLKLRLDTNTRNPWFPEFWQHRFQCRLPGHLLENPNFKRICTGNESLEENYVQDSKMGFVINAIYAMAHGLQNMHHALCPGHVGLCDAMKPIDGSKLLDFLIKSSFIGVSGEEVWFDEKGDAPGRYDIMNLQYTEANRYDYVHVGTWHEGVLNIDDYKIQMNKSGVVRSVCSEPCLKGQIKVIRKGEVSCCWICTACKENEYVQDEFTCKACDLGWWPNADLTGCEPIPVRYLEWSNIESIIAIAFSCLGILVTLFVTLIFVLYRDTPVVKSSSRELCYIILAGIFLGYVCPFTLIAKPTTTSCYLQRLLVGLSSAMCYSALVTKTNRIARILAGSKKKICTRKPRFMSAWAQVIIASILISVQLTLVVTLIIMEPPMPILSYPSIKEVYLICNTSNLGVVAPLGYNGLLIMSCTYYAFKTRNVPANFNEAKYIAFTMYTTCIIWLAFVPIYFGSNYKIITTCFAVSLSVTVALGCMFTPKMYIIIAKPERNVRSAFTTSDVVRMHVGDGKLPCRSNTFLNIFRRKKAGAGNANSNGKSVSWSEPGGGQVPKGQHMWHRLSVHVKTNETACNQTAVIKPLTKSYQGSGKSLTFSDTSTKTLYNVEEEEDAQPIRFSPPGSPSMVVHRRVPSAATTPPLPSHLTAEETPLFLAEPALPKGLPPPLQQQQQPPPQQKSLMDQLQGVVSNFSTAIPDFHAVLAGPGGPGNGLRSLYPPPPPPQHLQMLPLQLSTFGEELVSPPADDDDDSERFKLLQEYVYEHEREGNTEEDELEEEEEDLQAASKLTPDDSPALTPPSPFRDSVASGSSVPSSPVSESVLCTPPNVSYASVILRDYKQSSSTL
- PROTOCOL_DESCRIPTION: Antagonist activity at mGlu1 receptor
- Assay type: functional
pIC50: −log10 of the molar value.
Label satisfied when pIC50 is at or above 6; otherwise label not satisfied.

{"COMPOUND": "C[C@@](N)(C(=O)O)c1ccc(C(=O)O)cc1", "CLASS_LABEL": "not satisfied"}
{"COMPOUND": "COc1ccc(Nc2ncnc3ccc(OC)cc23)cc1", "CLASS_LABEL": "satisfied"}
{"COMPOUND": "C=C1C[C@@H]2COC(=O)[C@]2(Cc2ccc3ccccc3c2)C1", "CLASS_LABEL": "satisfied"}
{"COMPOUND": "Cc1c(C2=CCC(C(=O)N(C)C(C)C)CC2)nnn1-c1cccnc1F (configuration not stated)", "CLASS_LABEL": "satisfied"}
{"COMPOUND": "N[C@H](C(=O)O)c1ccc(C(=O)O)cc1", "CLASS_LABEL": "not satisfied"}
{"COMPOUND": "N[C@H](C(=O)O)c1ccc(O)c(C(=O)O)c1", "CLASS_LABEL": "not satisfied"}
